TEST_NAME: Equieffective molar ratio of compound to inhibit hyperpolarization in cultured rat sympathetic neurons
Format: functional, Sympathetic neuron
Ratio overview
ENDPOINT: Ratio

>>> df
                                smiles_repr  obs_value
0  C[n+]1ccc(SCCCCCCCCCCSc2cc[n+](C)c3ccccc23)c2ccccc21        6.2
1  Cc1cc(NCCCCCCCCCCNc2cc(C)[n+](CCC(c3ccccc3)c3ccccc3)c3ccccc23)c2ccccc2[n+]1CCC(c1ccccc1)c1ccccc1        6.2
2  C[n+]1ccc(CCCCCCCCCCCCc2cc[n+](C)c3ccccc23)c2ccccc21        5.9
3  Cc1cc(NCCCCCCCCCCCCNc2cc(C)nc3ccccc23)c2ccccc2n1        7.1
4  C[n+]1ccc(OCCCCCCCCCCOc2cc[n+](C)c3ccccc23)c2ccccc21        7.2
5  c1ccc2c(NCCCCCCCCCCNc3ccnc4ccccc34)ccnc2c1        3.5
6  C[n+]1ccc(NCCCCCCCCCCNc2cc[n+](C)c3ccccc23)c2ccccc21        1.9
7  c1ccc(C[n+]2ccc(NCCCCCCCCCCNc3cc[n+](Cc4ccccc4)c4ccccc34)c3ccccc32)cc1          1
8  Cc1cc(NCCCCCCCCCCNc2cc(C)nc3ccccc23)c2ccccc2n1        3.6

====

EXPERIMENTAL_TARGET: Small conductance calcium-activated potassium channel (Rattus norvegicus, UniProt P70604+P70606+P70605)
TEST_NAME: SKCa-blocking activity by its ability to inhibit after hyperpolarization (AHP) in cultured rat sympathetic neurons
Type: functional, cell-based
SETTINGS: sympathetic neuron
IC50 overview
ENDPOINT: IC50

In [3]: df
Out[3]:
                                smiles_repr  obs_value
0  Cc1cc(NCCCCCCCCCCCCNc2cc(C)nc3ccccc23)c2ccccc2n1    3800 nM
1  C[n+]1ccc(SCCCCCCCCCCSc2cc[n+](C)c3ccccc23)c2ccccc21    3700 nM
2  c1ccc(C[n+]2ccc(NCCCCCCCCCCNc3cc[n+](Cc4ccccc4)c4ccccc34)c3ccccc32)cc1     700 nM
3  Cc1cc(NCCCCCCCCCCCCNc2cc(C)[n+](Cc3ccccc3)c3ccccc23)c2ccccc2[n+]1Cc1ccccc1    2400 nM
4  Cc1cc(NCCCCCCCCCCCCNc2cc(C)[n+](Cc3ccccc3)c3ccccc23)c2ccccc2n1    4400 nM
5  Cc1cc(NCCCCCCCCCCNc2cc(C)nc3ccccc23)c2ccccc2n1    2500 nM
6  COc1cc(C[n+]2c(C)cc(NCCCCCCCCCCNc3cc(C)nc4ccccc34)c3ccccc32)cc(OC)c1     750 nM
